- System name: human TAS1R2-R838K (subunit alone) (Homo sapiens, UniProt Q8TE23, R838K)
- Assay summary: Calcium mobilisation assay, TAS1R2-R838K subunit alone
Value kind: pEC50
// pEC50: -log10(molar conc.)

In: Quick check: pEC50 on human TAS1R2-R838K (subunit alone) (Homo sapiens, UniProt Q8TE23, R838K), item C=C(C)[C@@H]1CC=C(/C=N/O)CC1 ?
Out: 4.03

* * *

- System name: human TAS1R2-I595T/TAS1R3-WT (Homo sapiens, UniProt Q7RTX0+Q8TE23, I595T)
- Construct: expressed in transfected cells; host or cells: HEK293T-Gα16gust44
- Sequence (Q8TE23 20-839 I595T): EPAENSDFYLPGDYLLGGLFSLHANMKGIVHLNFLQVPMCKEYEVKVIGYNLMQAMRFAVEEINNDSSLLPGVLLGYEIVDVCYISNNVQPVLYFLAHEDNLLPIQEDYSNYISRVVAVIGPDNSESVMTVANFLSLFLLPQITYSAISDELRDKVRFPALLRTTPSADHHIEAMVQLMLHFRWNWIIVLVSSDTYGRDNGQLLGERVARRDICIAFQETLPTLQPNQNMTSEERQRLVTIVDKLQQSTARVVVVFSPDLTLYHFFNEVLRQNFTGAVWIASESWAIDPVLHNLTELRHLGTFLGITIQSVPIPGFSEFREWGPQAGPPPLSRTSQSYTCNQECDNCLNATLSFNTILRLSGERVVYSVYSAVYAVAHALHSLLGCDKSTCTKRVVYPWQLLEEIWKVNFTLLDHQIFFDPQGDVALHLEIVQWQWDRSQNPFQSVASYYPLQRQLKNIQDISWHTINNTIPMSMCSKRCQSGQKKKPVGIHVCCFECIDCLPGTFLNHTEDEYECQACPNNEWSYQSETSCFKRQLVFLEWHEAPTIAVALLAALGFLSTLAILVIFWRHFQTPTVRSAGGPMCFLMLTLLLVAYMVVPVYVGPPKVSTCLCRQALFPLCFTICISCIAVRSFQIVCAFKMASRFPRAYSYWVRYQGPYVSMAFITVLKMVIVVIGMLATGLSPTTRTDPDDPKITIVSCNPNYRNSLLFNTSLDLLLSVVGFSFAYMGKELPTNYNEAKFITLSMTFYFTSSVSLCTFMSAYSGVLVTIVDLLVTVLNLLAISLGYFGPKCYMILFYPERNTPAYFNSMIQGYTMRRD
- Sequence (Q7RTX0 21-852): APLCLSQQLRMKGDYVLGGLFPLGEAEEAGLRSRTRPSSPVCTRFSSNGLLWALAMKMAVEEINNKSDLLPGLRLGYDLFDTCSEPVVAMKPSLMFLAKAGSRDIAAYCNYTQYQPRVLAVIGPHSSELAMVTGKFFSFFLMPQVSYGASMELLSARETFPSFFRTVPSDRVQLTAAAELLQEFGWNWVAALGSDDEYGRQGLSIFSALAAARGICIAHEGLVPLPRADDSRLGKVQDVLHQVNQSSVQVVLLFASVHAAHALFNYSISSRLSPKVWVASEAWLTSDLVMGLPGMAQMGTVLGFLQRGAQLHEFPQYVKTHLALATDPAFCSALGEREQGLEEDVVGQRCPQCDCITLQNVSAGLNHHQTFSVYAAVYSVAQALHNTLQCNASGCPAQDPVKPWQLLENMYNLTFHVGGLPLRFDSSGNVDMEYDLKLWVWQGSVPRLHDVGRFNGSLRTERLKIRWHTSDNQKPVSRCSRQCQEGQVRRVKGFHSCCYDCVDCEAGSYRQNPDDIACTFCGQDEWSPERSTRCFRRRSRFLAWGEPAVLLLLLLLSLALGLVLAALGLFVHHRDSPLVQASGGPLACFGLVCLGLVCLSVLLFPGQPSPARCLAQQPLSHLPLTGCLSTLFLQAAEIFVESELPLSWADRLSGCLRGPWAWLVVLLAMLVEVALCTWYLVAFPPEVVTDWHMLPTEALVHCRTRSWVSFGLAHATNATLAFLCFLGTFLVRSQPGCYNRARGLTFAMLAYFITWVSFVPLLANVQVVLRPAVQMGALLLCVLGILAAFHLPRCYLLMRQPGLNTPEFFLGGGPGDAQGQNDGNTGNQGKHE
- Assay summary: Calcium mobilisation assay, TAS1R2 variant I595T with TAS1R3-WT
- Type: cell-based
- Condition notes: "-": no activation
- Excerpt: The coding sequences for TAS1R2 and TAS1R3 were commercially synthesised, and the human codon was optimised for expression in human cells. […] The HEK293T cells were kindly provided by Jay P. Slack (Givaudan Flavors Corporation; Cincinnati, OH, USA). […] The Ca^2+ changes were expressed as fractional changes in fluorescent light intensity: ΔF/F = (F − F0)/F0, where F was the fluorescent light intensity at each point, and F0 was the value of emitted fluorescent light prior to stimulus application. […]
Measured R1 = Variant EC50/WT EC50 accompanies every entry in the list below.
Form field (numeric): enter value without unit.

>  <Compound>
C=C1C[C@@]23CC[C@H]4[C@@](C)(CCC[C@@]4(C)C(=O)O[C@@H]4O[C@H](CO)[C@@H](O)[C@H](O[C@@H]5O[C@H](CO)[C@@H](O)[C@H](O)[C@H]5O)[C@H]4O[C@@H]4O[C@H](CO)[C@@H](O)[C@H](O)[C@H]4O)[C@@H]2CC[C@]1(O[C@@H]1O[C@H](CO)[C@@H](O)[C@H](O[C@@H]2O[C@H](CO)[C@@H](O)[C@H](O)[C@H]2O)[C@H]1O[C@@H]1O[C@H](CO)[C@@H](O)[C@H](O)[C@H]1O)C3 [Rebaudioside M, rebaudioside M]

>  <Recorded value>
2.1

$$$$
>  <Compound>
COC(=O)[C@H](Cc1ccccc1)NC(=O)[C@H](CC(=O)O)NCCC(C)(C)C

>  <Recorded value>
1.5

$$$$
>  <Compound>
C[C@H](CC[C@@H](O[C@@H]1O[C@H](CO[C@@H]2O[C@H](CO)[C@@H](O)[C@H](O)[C@H]2O)[C@@H](O)[C@H](O)[C@H]1O[C@@H]1O[C@H](CO)[C@@H](O)[C@H](O)[C@H]1O)C(C)(C)O)[C@H]1CC[C@@]2(C)[C@@H]3CC=C4[C@@H](CC[C@H](O[C@@H]5O[C@H](CO[C@@H]6O[C@H](CO)[C@@H](O)[C@H](O)[C@H]6O)[C@@H](O)[C@H](O)[C@H]5O)C4(C)C)[C@]3(C)[C@H](O)C[C@]12C [Mogroside V, mogroside V]

>  <Recorded value>
1.8

$$$$
>  <Compound>
CC1=CC(=O)NS(=O)(=O)O1

>  <Recorded value>
0.4

$$$$
>  <Compound>
C=C(C)[C@@H]1CC=C(/C=N/O)CC1

>  <Recorded value>
3.0

$$$$
>  <Compound>
COc1ccc(CCC(=O)c2c(O)cc(O[C@@H]3O[C@H](CO)[C@@H](O)[C@H](O)[C@H]3O[C@@H]3O[C@@H](C)[C@H](O)[C@@H](O)[C@H]3O)cc2O)cc1O [NHDC, neohesperidin dihydrochalcone]

>  <Recorded value>
0.9

$$$$

Then there is this compound:
In: Field request: R1 = Variant EC50/WT EC50 | item: OC[C@H]1O[C@H](O[C@]2(CCl)O[C@H](CCl)[C@@H](O)[C@@H]2O)[C@H](O)[C@@H](O)[C@H]1Cl
Out: 1.2
